target: HA of ca A/Panama/2007/99 (H3N2) virus (influenza A virus); test: cell-based or functional assay
Attribute measured: Neutralization IC50, H3-Pa99 (µg/mL)
Note: unit µg/mL is implicit; provide only the numeric part.

Sample answers from the record:
Binder	Reading
Antibody 10 (antibody, V domains shown) VH: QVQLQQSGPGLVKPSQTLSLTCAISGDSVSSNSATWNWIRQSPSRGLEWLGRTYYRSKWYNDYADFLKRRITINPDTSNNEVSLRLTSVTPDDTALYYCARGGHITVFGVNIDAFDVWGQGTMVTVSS VL: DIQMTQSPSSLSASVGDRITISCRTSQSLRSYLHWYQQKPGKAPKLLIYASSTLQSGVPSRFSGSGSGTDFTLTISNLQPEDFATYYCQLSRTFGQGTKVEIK	18.7
Antibody 3 (antibody, V domains shown) VH: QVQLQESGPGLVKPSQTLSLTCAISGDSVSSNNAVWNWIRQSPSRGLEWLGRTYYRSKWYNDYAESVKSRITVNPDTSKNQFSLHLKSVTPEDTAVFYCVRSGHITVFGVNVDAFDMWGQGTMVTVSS VL: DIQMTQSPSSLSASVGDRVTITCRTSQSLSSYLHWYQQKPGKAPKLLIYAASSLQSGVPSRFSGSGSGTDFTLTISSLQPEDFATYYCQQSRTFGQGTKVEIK	17.7
Antibody 5 (antibody, V domains shown) VH: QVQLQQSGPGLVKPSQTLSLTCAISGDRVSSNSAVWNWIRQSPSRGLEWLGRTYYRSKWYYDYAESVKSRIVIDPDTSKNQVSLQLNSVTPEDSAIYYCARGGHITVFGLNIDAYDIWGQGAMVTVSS VL: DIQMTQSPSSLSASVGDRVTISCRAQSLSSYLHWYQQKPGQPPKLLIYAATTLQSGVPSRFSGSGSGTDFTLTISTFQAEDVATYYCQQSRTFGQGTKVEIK	16.7

Please turn your attention to the following entry.
Please give the measured Neutralization IC50, H3-Pa99 for this binder: Antibody 6 (antibody, V domains shown) VH: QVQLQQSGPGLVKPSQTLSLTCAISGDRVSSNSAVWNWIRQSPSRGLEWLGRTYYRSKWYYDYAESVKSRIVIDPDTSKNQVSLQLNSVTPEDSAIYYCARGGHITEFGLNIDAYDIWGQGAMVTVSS VL: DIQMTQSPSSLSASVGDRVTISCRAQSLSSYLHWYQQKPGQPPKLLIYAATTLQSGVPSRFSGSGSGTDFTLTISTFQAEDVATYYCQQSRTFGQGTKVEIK
25.8
